- target-entity: SARS-CoV-2 spike S2 protein (SARS-CoV-2, UniProt P0DTC2 686-1213)
property: kon (M⁻¹ s⁻¹)
Unit M⁻¹ s⁻¹ implied. Number only.

Req: So what's the measured kon for this one? AB-009325 (antibody, V domains shown) VH: QVQLVESGGGVVQPGRSLRLSCAASGFTFNNYGMHWVRQAPGKGLEWVALISYEGSLKYYGDSVRGRFTVSRDNSRNTLYLQMNSLRVDDTAVYYCAKAGGIFAIHYYGMNVWGQGTTVTVSS VL: QSVLTQPPSVSAAPGQKVTISCSGSSSNIGKNYVSWYRQFPGTAPKLLIYDNNKRPSGIPDRFSGSKSDTSATLGITGLQTGDEADYYCVTWDSSLSAGVFGGGTKLTVL
Resp: 5930

Req: Same thing, different binder: AB-009117 (antibody, V domains shown) VH: ELQLVESGGGLVKPGGSLRLSCTASGFTFISYSISWVRQAPGKGLEWVSSISSYSNYIFYGDSVKGRFNISRDNPKNSVYLQLNSLRAEDTAVYYCVRDTSFYEGGGYYNRFEPWGQGTRVTVSS VL: EIVMTQSPATLSVSPGERATLSCRASQSISINLAWYQQRPGQAPRLLIYGASTRATGIPARFSGSGSGTEFTLTISSLQSEDSAVYYCQQYNNWPPYTFGQGTTLEIK
Resp: 38200

Req: Subsequent entry: AB-009293 (antibody, V domains shown) VH: QAQLVESGGGVVQPGRSLRLSCAASGFNFNNYGMHWVRLAAGKGLEWVAFISYEGSITHYADSVKGRFTVSRDFSKNTLYLQMNRLTTGDTAVYYCAKRREVLHLWRDEMDVWGQGTTVTVSS VL: DIQMTQSPPSLSASVGDRVTFTCRASQDITNSLAWFQQRPGKAPKSLIYAASTLHSGVPSKFSGSGSGTDFTLTITSLQPEDVATYYCQQYKTYPFTFGQGTRLEIK
Resp: 5170
